Tested on: COLO 205 colon
Assay: NCI-60 one-dose screen, 48 h (100 = growth as untreated, 0 = no growth, -100 = all killed)
Conditions: 10 µM unless noted
The panel holds about 83,000 compounds, 20% with a hit somewhere; the sample as a whole holds those more often.
The compounds listed here are annotated with their growth.
Give your result in % as a bare value.

The examples below pair each entry with its known result.
The measured growth associated with COc1ccc(-n2nc(C(=O)NCC(=O)Nc3nc4cc(OC)ccc4s3)c3ccccc3c2=O)cc1 reads 32.7

The measured growth associated with CCN(CC)CCC(CNc1ccnc2cc(Cl)ccc12)c1ccc(O)cc1 (stereo not given) reads 71.5

The measured growth associated with O=[N+]([O-])c1ccccc1CN1CCCCC1 reads 111

The measured growth associated with CCOCC(O)(c1ccc(Cl)cc1)c1ccc(Cl)cc1 reads 111

The measured growth associated with NC(N)=N/N=C\c1ccc(OCc2ccccc2)cc1 reads -62.8

The measured growth associated with CCNS(=O)(=O)c1ccc(C)cc1 reads 113

The measured growth associated with COc1ccc(/C(=C\c2cc(OC)c(OC)c(OC)c2)C(=O)N2CCCNCC2)cc1 reads 110

The measured growth associated with O=C(Nc1ccccc1Cl)Oc1ccc2ccccc2c1 reads 118

The measured growth associated with CC(C)CC(NC(=O)OCC1c2ccccc2-c2ccccc21)C(=O)O (stereo not given) reads 111

The measured growth associated with CCN(CC)Cc1cc(Nc2nc(NC3CCC(N(C)C)CC3)c3ccccc3n2)ccc1OC (stereo not given) reads 12

New cases:
The measured growth associated with CCN(CC)Cc1cc(Nc2ccnc3cc(Cl)ccc23)cc(-c2ccc(Cl)cc2)c1O reads 55.8

The measured growth associated with CCSc1ccc([C@@H]2[C@@H](O)C(=O)N2c2cc(OC)c(OC)c(OC)c2)cc1 reads -48.8

----------
The molecules listed here are annotated with their growth.
Test system: LOX IMVI melanoma
Assay: NCI-60 one-dose screen, 48 h (100 = growth as untreated, 0 = no growth, -100 = all killed)
Conditions: 10 µM unless noted
Compounds without any hit were thinned out: in the full panel of roughly 83,000, 20% have a hit. The source made the active and inactive calls. Rule for the calls: active = growth percent below 10; inactive = the rest.

The measured growth associated with COCCn1c(Nc2ccc(C(=O)NO)cc2)nc2ccccc21 reads 73.6% (inactive)

----------
Tested on: RPMI-8226 leukemia
Experiment: NCI-60 one-dose screen, 48 h (100 = growth as untreated, 0 = no growth, -100 = all killed)
Conditions: 10 µM unless noted
Compounds without any hit were thinned out: in the full panel of roughly 83,000, 20% have a hit.
So basically: is growth under -20%? Then condition met. Not under? Then condition not met.

For orientation, consider the following solved cases.
Confirm or reject: growth of COc1ccc(-c2cn(-c3cccc(C(=O)/C=C/c4ccc(O)c(OC)c4)c3)c(=O)[nH]2)cc1 lies strictly below -20%
condition met

Confirm or reject: growth of CCNS(=O)(=O)c1ccc(C)cc1 lies strictly below -20%
condition not met

Confirm or reject: growth of CN(C)CCOc1nc2c3cccnc3cc(-c3cccc(Cl)c3)c2c2ncccc12 lies strictly below -20%
condition met

Now let's try a different one.
Confirm or reject: growth of CCCCN(CCCC)CCCN=c1nc2c(c(N)n1-c1ccccc1)c(=S)n(-c1ccccc1)c(=S)n2-c1ccccc1 lies strictly below -20%
condition met

----------
System: NCI-H23 lung
Test: NCI-60 one-dose screen, 48 h (100 = growth as untreated, 0 = no growth, -100 = all killed)
Conditions: 10 µM unless noted
Description: Growth inhibition of the NCI-H23 human Non-Small Cell Lung tumor cell line is measured as a screen for anti-cancer activity. Cells are grown in 96 well plates and exposed to the test compound for 48 hours. Compounds are tested at a single concentration, which is 10^-5 M for most compounds. The reported endpoint is percent growth (GI% or GIPRCNT), where numbers from 0 - 100% represent growth inhibition, and numbers from -100% - 0 represent cell death. […]
This is part of a sample that, as a whole, favours compounds with a hit. Of some 83,000 tested, about 20% had one in any assay.
Class field: derived from growth; ranges bin A (below 40%), bin B (40% to below 70%), bin C (70% or more)

For orientation, consider the following solved cases.
# classify by growth band: COc1ccc(Sc2[nH]c(C=O)c3ccccc23)cc1
bin C

# classify by growth band: COc1ccc(C(=O)c2cc(C)c(OC)c(C)c2)cc1OC(=O)CCl
bin A

# classify by growth band: O=C(Nc1ccc2[nH]c3ccccc3c2c1)c1ccccc1Cl
bin B

# classify by growth band: O=c1cc(-c2ccc3c(c2)OCCO3)oc2cc(Cl)ccc12
bin B

# classify by growth band: COc1cc(C2CC(c3ccc(Cl)cc3)=NN2C=O)ccc1OS(=O)(=O)c1ccc(C)cc1 (stereo unspecified)
bin C

New cases:
# classify by growth band: N#Cc1c(N)n(C2OC(CO)C(O)C2O)c2ncnc(N)c12 (stereo unspecified)
bin A

# classify by growth band: Clc1ccc(-c2nc(Br)cn3ccnc23)cc1
bin C

# classify by growth band: C=C(C)c1ccc(/C=N/NC(N)=S)cc1
bin C

# classify by growth band: Fc1cnccc1-c1nc2ccc3[nH]ncc3c2c2c1CCCC2
bin A

----------
Tested on: SK-MEL-5 melanoma
Assay: NCI-60 one-dose screen, 48 h (100 = growth as untreated, 0 = no growth, -100 = all killed)
Conditions: 10 µM unless noted
The panel holds about 83,000 compounds, 20% with a hit somewhere; the sample as a whole holds those more often.
The molecules listed here are annotated with their growth.
Give your result in % as a bare value.

// growth (SK-MEL-5 melanoma) for COc1ccc(C2C3=C(COC3=O)N(CCO)c3cc(OC)c(OC)cc32)cc1 (stereo unspecified) = 100

New cases:
// growth (SK-MEL-5 melanoma) for CCc1ccc(Nc2ncnc3c2cnn3-c2cccc(Br)c2)cc1 = 96.6

// growth (SK-MEL-5 melanoma) for CC(C)NC(=O)OCC#CCOC(=O)NC(C)C = 106

----------
System: CCRF-CEM leukemia
Experiment: NCI-60 one-dose screen, 48 h
Conditions: 10 µM unless noted
About 83,000 compounds went through this panel and 20% of them were active in at least one assay; those are over-represented in the sample as a whole. The source made the active and inactive calls. The calls were made as follows: active = growth percent below 10; inactive = the rest.
Lab note: assign the record to one of active, inactive

Dear all, I need the recorded test outcome for Cc1ccc(S(=O)(=O)NC(CCC(=O)Nc2ccc(Cl)cc2)C(=O)Nc2ccc(Cl)cc2)cc1 (stereo not given) , thank you.
active

Dear all, I need the recorded test outcome for Cc1cc(-c2nnc(/C=C/c3ccc4c(c3)OCO4)o2)n[nH]1 , thank you.
inactive

Dear all, I need the recorded test outcome for O=C1C=CC(=O)N1c1cccc(N2C(=O)C=CC2=O)c1 , thank you.
active

Dear all, I need the recorded test outcome for Oc1ccc(CCCCCCc2ccc(O)cc2)cc1 , thank you.
inactive

New cases:
Dear all, I need the recorded test outcome for COc1ccc(-c2oc(=O)ccc2-c2cc(OC)c(OC)c(OC)c2)cc1F , thank you.
inactive

Dear all, I need the recorded test outcome for O=C1C(Cl)=C(N/N=c2/[nH][nH]/c(=N/NC3=C(Cl)C(=O)c4ccccc4C3=O)c3ccccc23)C(=O)c2ccccc21 , thank you.
inactive

Dear all, I need the recorded test outcome for COc1ccc(-c2nc(-c3cc(OC)cc(OC)c3)[nH]c2-c2ccc(OC)cc2)cc1 , thank you.
inactive

----------
Test system: M14 melanoma
Assay: NCI-60 one-dose screen, 48 h (100 = growth as untreated, 0 = no growth, -100 = all killed)
Conditions: 10 µM unless noted
This is part of a sample that, as a whole, favours compounds with a hit. Of some 83,000 tested, about 20% had one in any assay.
OBSERVED_PROPERTY: growth (%)
Give your result in % as a bare value.

The measured growth associated with COc1cc2c(cc1OC)C(=O)OC2 reads 119

The measured growth associated with C/C(=N\NC(=S)Nc1ccccc1)c1ccccn1 reads 24.1

The measured growth associated with Cc1[nH]nc2ccc3nc(-c4ccc5[nH]ncc5c4)c4c(c3c12)CCCC4 reads 18.9

The measured growth associated with COc1ccc(/C(=C\c2cc(OC)c(OC)c(OC)c2)C(=O)N2CCCNCC2)cc1 reads 105

The measured growth associated with CCOC(=O)C1=C(C)NC(SCc2nnc(-c3ccc(Cl)cc3)o2)=NC1c1ccc(Cl)cc1 (stereo unspecified) reads 69.3

New cases:
The measured growth associated with CN(C)c1ccc(C(c2ccccc2)c2ccc(N(C)C)cc2)cc1 reads 93

The measured growth associated with COc1ccc(-c2nsc3c2NC(=O)CC3c2ccc3c(c2)OCO3)cc1 (stereo unspecified) reads 18.2

The measured growth associated with Cc1c(-c2ccc(-c3ccccc3F)cc2)nc2ccc(F)cc2c1C(=O)O reads 53.7

The measured growth associated with CSC1=NC(=Nc2c(C)cccc2C)C2(CCC(C(C)(C)C)CC2)N1c1ccc(Cl)cc1 (stereo unspecified) reads 49.5

The measured growth associated with C=CCN(CCOC(=O)c1ccc([N+](=O)[O-])cc1)CCOC(=O)c1ccc([N+](=O)[O-])cc1 reads 105
